# Assay text: Solubility of the compound in phosphate buffered saline at pH 7.4
# Format: physicochemical
Could you label it fulfilled if measured solubility is 40 µg/mL or higher, and not fulfilled otherwise?

Record COc1ccc2c(n1)C1(CO2)C(=O)N(Cc2ccccn2)c2ccccc21 (stereo unspecified) ; criterion: solubility no lower than 40 µg/mL. Met?
not fulfilled

Determine whether this compound has solubility no lower than 40 µg/mL: N#Cc1cc2c(cc1F)OCC21C(=O)N(Cc2ncccc2C(F)(F)F)c2ccccc21 (stereo unspecified)
not fulfilled

# check: solubility of O=C1N(Cc2ccccn2)c2ccccc2C12COc1cc(F)c(F)cc12 (stereo unspecified) is greater than or equal to 40 µg/mL
not fulfilled

Does the reported solubility for COc1ccc2c(c1)OCC21C(=O)N(C[C@H]2CCCO2)c2ccccc21 (stereo partly specified) fall at or above the 40 µg/mL mark?
fulfilled

solubility >= 40 µg/mL for COc1cc2c(cn1)OCC21C(=O)Nc2ccccc21 (stereo unspecified) ?
fulfilled

Quick check: does COc1ccc2c(n1)C1(CO2)C(=O)N(Cc2ncccc2C(F)(F)F)c2ccccc21 (stereo unspecified) have solubility greater than or equal to 40 µg/mL?
not fulfilled

Please check the record COc1cc2c(cc1F)C1(CO2)C(=O)N(Cc2ccc(C(F)(F)F)o2)c2ccccc21 (stereo unspecified) and state if its solubility is at or above 40 µg/mL.
not fulfilled

Dear colleague, could you confirm whether CCCCCN1C(=O)C2(COc3cc(OC)ccc32)c2ccccc21 (stereo unspecified) has solubility at or above 40 µg/mL?
not fulfilled

Confirm if solubility reported for the compound COc1ccc2c(n1)C1(CO2)C(=O)N(Cc2csc(C(C)C)n2)c2ccccc21 (stereo unspecified) is 40 µg/mL or above.
not fulfilled

Hi, just wondering whether COc1cc2c(cn1)OCC21C(=O)N(Cc2ccc(C(F)(F)F)o2)c2ccccc21 (stereo unspecified) shows solubility of 40 µg/mL or higher.
not fulfilled

Could you tell me if the measured solubility of COc1ccc2c(n1)C1(CO2)C(=O)N(Cc2ccc3c(c2)OCCO3)c2ccccc21 (stereo unspecified) reaches 40 µg/mL or more?
not fulfilled

Quick check: does COCCOc1ccc2c(c1)OCC21C(=O)N(Cc2ccccn2)c2ccccc21 (stereo unspecified) have solubility greater than or equal to 40 µg/mL?
fulfilled

Test whether the compound COc1cc2c(cc1C)C1(CO2)C(=O)N(Cc2ccccn2)c2ccccc21 (stereo unspecified) records solubility of 40 µg/mL or higher.
not fulfilled

Determine whether measured solubility meets or exceeds 40 µg/mL for Cc1cc2c(cc1C)C1(CO2)C(=O)N(Cc2ccccn2)c2ccccc21 (stereo unspecified)
not fulfilled

Dear colleague, could you confirm whether COc1cc2c(cn1)OCC21C(=O)N(CC2CCCCO2)c2ccccc21 (stereo unspecified) has solubility at or above 40 µg/mL?
fulfilled

Could you verify whether the entry COc1ccc2c(c1)OCC21C(=O)N(CC2CCCCO2)c2ccccc21 (stereo unspecified) shows solubility of no less than 40 µg/mL?
not fulfilled

Does the compound COc1cc2c(cn1)OCC21C(=O)N(C[C@H]2CCCO2)c2ccccc21 (stereo partly specified) have recorded solubility that is 40 µg/mL or more?
not fulfilled

Can COc1cc2c(cc1F)C1(CO2)C(=O)N(Cc2ccccn2)c2ccccc21 (stereo unspecified) be said to have solubility at or above 40 µg/mL?
not fulfilled

For this compound, is measured solubility 40 µg/mL or higher? COc1ccc2c(n1)C1(CO2)C(=O)Nc2ccccc21 (stereo unspecified)
fulfilled

Hello, I need to know if COc1ccc2c(c1)OCC21C(=O)N(Cc2ccccn2)c2ccccc21 (stereo unspecified) has measured solubility not below 40 µg/mL. Thanks!
not fulfilled

Can COc1ccc2c(n1)C1(CO2)C(=O)N(Cc2ccc(Cl)s2)c2ccccc21 (stereo unspecified) be said to have solubility at or above 40 µg/mL?
not fulfilled
